Target: Cytochrome P450 1A2 (Homo sapiens) (UniProt P05177)
Sequence (P05177 whole entry, looked up): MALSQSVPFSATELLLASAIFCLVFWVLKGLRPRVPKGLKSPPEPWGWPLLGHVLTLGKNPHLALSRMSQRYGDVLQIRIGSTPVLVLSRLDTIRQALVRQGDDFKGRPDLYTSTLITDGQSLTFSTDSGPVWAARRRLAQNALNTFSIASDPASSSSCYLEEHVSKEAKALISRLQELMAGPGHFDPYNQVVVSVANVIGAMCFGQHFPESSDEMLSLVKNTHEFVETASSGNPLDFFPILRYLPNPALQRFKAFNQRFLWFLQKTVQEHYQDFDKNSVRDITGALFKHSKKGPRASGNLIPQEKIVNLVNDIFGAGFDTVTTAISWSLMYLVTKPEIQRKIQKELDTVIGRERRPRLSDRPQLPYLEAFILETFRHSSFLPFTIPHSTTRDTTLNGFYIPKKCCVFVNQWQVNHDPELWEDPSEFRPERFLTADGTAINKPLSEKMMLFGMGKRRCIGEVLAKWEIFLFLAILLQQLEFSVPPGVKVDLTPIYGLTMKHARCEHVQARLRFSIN
Test: Cytochrome panel assay with activity outcomes
Details: recombinant CYP, pro-luciferin dealkylation, luminescence, p450-cyp1a2; series mostly up to 57.1 µM
The campaign covered roughly 16,000 compounds. About 5,700 (36%) were called active. Inconclusive results (about 24%) are left out. Calls come from the whole dose curve; as a rule, active = well fitted curve in the direction sought with a large enough effect; inconclusive = small, poorly fitted or top-dose-only effect, or effect the other way; inactive = no such curve, though single readings can be large or run the other way. Some of the results follow.
Valid outcomes are listed here; reply with one: active, inactive

The examples below pair each entry with its known result.
(Q) Which outcome did this test record for the compound CCOC(=O)c1cnc2ccc(C)cc2c1Sc1ccccc1C(=O)OC ?
(A) active

(Q) Which outcome did this test record for the compound CN1CCC(=C2c3ccccc3C=Cc3ccccc32)CC1 ?
(A) inactive

(Q) Which outcome did this test record for the compound O=C(CSCc1cccc(Br)c1)N/N=C/c1ccc2c(c1)OCO2 ?
(A) active

Further cases:
(Q) Which outcome did this test record for the compound O=C(CCN1C(=O)C2C3C=CC(C3)C2C1=O)Nc1ccc2ncccc2c1 (stereo unspecified) ?
(A) inactive

(Q) Which outcome did this test record for the compound CN1CCc2c(c3ccccc3n2C)C1 ?
(A) active

(Q) Which outcome did this test record for the compound O=C(CSCc1cccc(Cl)c1)NCc1ccc2c(c1)OCO2 ?
(A) active

----------
Molecular target: Cytochrome P450 1A2 (Homo sapiens)
Test: Cytochrome panel assay with activity outcomes
Settings: recombinant CYP, pro-luciferin dealkylation, luminescence, p450-cyp1a2; series mostly up to 57.1 µM
About 5,700 (36%) of roughly 16,000 compounds were called active. Another 24% or so got no clear call; they are omitted. Some of the results follow.
recorded.metric: AC50

Use these answered entries as a reference point.
Lookup result for CN=c1nc(-c2ccccc2)n(-c2ccccc2)s1 ; measured AC50: 5.01 µM (active)

Lookup result for COc1ccc(-n2c(=O)c(-c3cccs3)nc3cnc(Nc4cccc(OC)c4)nc32)cc1 ; measured AC50: inactive

Lookup result for COc1cccc(Nc2ncc3nc(C)c(=O)n(-c4ccccc4)c3n2)c1 ; measured AC50: 5.01 µM (active)

Lookup result for N[C@@H](C(=O)O)c1ccc(C(=O)O)c(C(=O)O)c1 ; measured AC50: inactive

Lookup result for CCN(CC)CCc1nc(-c2ccccc2)no1 ; measured AC50: 5.01 µM (active)

Each of the following entries comes with a recorded value; kindly state AC50 for each.
1. O=C(N/N=C/c1ccncc1)c1cc2c(ccc3ccccc32)o1
2. C=CCn1cc(/C=N\NC(=O)c2cc3c(ccc4ccccc43)o2)c2ccccc21
3. Cc1ccccc1C(=O)N/N=C/c1ccncc1
4. O=C(CCc1nc(-c2ccccc2)no1)NCCc1ccccc1

(A)
1: 0.355 µM (active); 2: 1 µM (active); 3: 12.6 µM (active); 4: 2.82 µM (active)

Each of the following entries comes with a recorded value; kindly state AC50 for each.
1. COc1ccc(-n2c(=O)c(C)nc3cnc(Nc4cccc(OC)c4)nc32)cc1
2. c1ccc(CCc2nc(-c3ccccc3)no2)cc1

(A)
1. 15.8 µM (active)
2. 2.82 µM (active)

----------
Target: Cytochrome P450 1A2 (Homo sapiens)
Assay: Cytochrome panel assay with activity outcomes
Details: recombinant CYP, pro-luciferin dealkylation, luminescence, p450-cyp1a2; series mostly up to 57.1 µM
Hit rate of the full screen: of about 16,000 compounds, about 5,700 (36%) were called active. Not shown: some 24% with an inconclusive outcome. Calls follow the shape of the dose curve; as a rule, active = well fitted curve in the direction sought with a large enough effect; inconclusive = small, poorly fitted or top-dose-only effect, or effect the other way; inactive = no such curve, though single readings can be large or run the other way. The list shows a part of the results.
Valid outcomes are listed here; reply with one: active, inactive

The examples below pair each entry with its known result.
(Q) Which outcome did this test record for the molecule COc1ccc2[nH]c(-c3ccccc3)c(CCNC(C)=O)c2c1 ?
(A) active

(Q) Which outcome did this test record for the molecule CCN1C(=O)C(O)(CC(=O)/C=C/C=C/c2ccccc2)c2ccccc21 (stereo unspecified) ?
(A) active

(Q) Which outcome did this test record for the molecule Cc1nc2ncnn2c(C)c1CCC(=O)NCc1ccccc1 ?
(A) inactive

(Q) Which outcome did this test record for the molecule CCN1C(=O)C(O)(C2COC(C)(C)CC2=O)c2ccccc21 (stereo unspecified) ?
(A) inactive

(Q) Which outcome did this test record for the molecule C[N+](C)(C)CCOC(=O)CCC(=O)OCC[N+](C)(C)C ?
(A) inactive

Next:
(Q) Which outcome did this test record for the molecule CCCCC(=O)NCCc1c(Cc2ccccc2)[nH]c2ccccc12 ?
(A) active

----------
Biological target: Cytochrome P450 1A2 (Homo sapiens)
Experiment: Cytochrome panel assay with activity outcomes
Conditions: recombinant CYP, pro-luciferin dealkylation, luminescence, p450-cyp1a2; series mostly up to 57.1 µM
Screen size: about 16,000 compounds; about 5,700 (36%) were called active. Roughly 24% stayed inconclusive and do not appear here. Calls follow the shape of the dose curve; as a rule, active = well fitted curve in the direction sought with a large enough effect; inconclusive = small, poorly fitted or top-dose-only effect, or effect the other way; inactive = no such curve, though single readings can be large or run the other way. This is one part of the list.
Valid outcomes are listed here; reply with one: active, inactive

The examples below pair each entry with its known result.
(Q) Which outcome did this test record for the compound Cc1ccc(NS(=O)(=O)c2ccccc2Cl)c2c1CC(C)(C)O2 ?
(A) active

(Q) Which outcome did this test record for the compound C/C(=N\NC(=O)c1ccc(Br)cc1)c1ccccc1 ?
(A) active

(Q) Which outcome did this test record for the compound CC(=O)NNc1nc2ccccc2s1 ?
(A) active

(Q) Which outcome did this test record for the compound Cc1ccccc1-c1nccc(-n2ccnc2)n1 ?
(A) active

(Q) Which outcome did this test record for the compound Cc1cc(N)c2ccccc2[n+]1CCCCCCCCCC[n+]1c(C)cc(N)c2ccccc21 ?
(A) inactive

(Q) Which outcome did this test record for the compound O=C1C2CCC(C(O)C2)N1Cc1ccccc1 (centres undefined) ?
(A) inactive

Next:
(Q) Which outcome did this test record for the compound CC(Sc1nnc(Cc2cccs2)n1C1CCCCC1)C(N)=O (centres undefined) ?
(A) inactive

----------
Target: Cytochrome P450 1A2 (Homo sapiens) (UniProt P05177)
Assay: Cytochrome panel assay with activity outcomes
Details: recombinant CYP, pro-luciferin dealkylation, luminescence, p450-cyp1a2; series mostly up to 57.1 µM
Description: The P450 gene superfamily is involved in the metabolism and clearance of xenobiotics. This assay used various human CYP P450 isozymes to measure the dealkylation of various pro-luciferin substrates to luciferin. The luciferin is then measured by luminescence after the addition of a luciferase detection reagent. […] Inhibitors and some substrates limit the production of luciferin, and decrease measured luminescence. […] 8, Detection, 1 sec, ViewLux luminescent read […]
Hit rate of the full screen: of about 16,000 compounds, about 5,700 (36%) were called active. Roughly 24% stayed inconclusive and do not appear here. The list shows a part of the results. Peptide text beside a SMILES is read from it.
recorded.metric: AC50

Lookup result for COC(=O)C(CC(C)C)NC(=O)C(N)Cc1ccccc1 (stereo not drawn) (H-Phe-Leu-OMe; configuration not given here) ; measured AC50: inactive

Lookup result for Cc1cc(O)c(/C=N/Nc2cccc(Cl)c2)c(=O)o1 ; measured AC50: 2.24 µM (active)

Lookup result for CCOC(=O)c1c(NC(=O)c2c(Br)cnn2C)c(C#N)nn1-c1ccccc1 ; measured AC50: 0.631 µM (active)

Lookup result for Cc1ccccc1C(=O)NNC(=O)c1ccc(F)cc1 ; measured AC50: inactive

Lookup result for O=C(NCc1n[nH]c(=S)n1-c1ccccc1)c1ccc(S(=O)(=O)N2CCOCC2)cc1 ; measured AC50: inactive

Lookup result for Cc1cnc(CNc2ncnc3ccc(-c4ccccc4C)cc23)cn1 ; measured AC50: 6.31 µM (active)

Lookup result for COc1cccc(-c2cc(C(F)(F)F)nc(N3CCCCC3)n2)c1 ; measured AC50: 1 µM (active)

Lookup result for CN1CCN(C(=O)c2ccc3c(=O)n4c(nc3c2)CCCCC4)CC1 ; measured AC50: inactive

Lookup result for COc1cc(OC)c(OC)cc1C=NCC1(c2ccccc2)CCCC1 ; measured AC50: 8.91 µM (active)

Lookup result for COc1ccc2c(c1)CCC1C2CC[C@]2(C)[C@H](NCCCCCCN3C(=O)C=CC3=O)CC[C@@H]12 (stereo partly specified) ; measured AC50: inactive

Each of the following entries comes with a recorded value; kindly state AC50 for each.
1. Cc1ccccc1-c1ccc2ncnc(NC3CC3)c2c1
2. COC(=O)N1CCC2(CCN(C(=O)Nc3ccccc3)CC2)CC1
3. COc1cccc(-c2cc(C(F)(F)F)nc(N3CCOCC3)n2)c1
4. Cc1ccc(CCN2CC(C(=O)NCCN3CCCCCC3)CC2=O)cc1 (stereo unspecified)
5. COC(=O)c1cn(NC(=O)c2ccc(F)cc2)c(=O)c2ccccc12
6. CCOC(=O)Nc1ccc2c(c1)N(C(=O)CCN1CCOCC1)c1ccccc1S2
7. O=C(CNC(=O)c1ccc([N+](=O)[O-])cc1)c1ccccc1
8. CC(C(=O)NCc1ccc2c(c1)OCO2)N1c2cccc3cccc(c23)S1(=O)=O (stereo unspecified)

(A)
0.126 µM (active)
inactive
0.794 µM (active)
inactive
inactive
inactive
inactive
1.78 µM (active)

Each of the following entries comes with a recorded value; kindly state AC50 for each.
1. CCS(=O)(=O)N1CCC(C(=O)NCc2ccc(F)cc2Cl)CC1
2. COC(=O)[C@H](N)Cc1ccc(Cl)cc1
3. O=c1onc2cnc3ccccc3n12
4. Cc1cnc(C(=O)OCC(=O)NC(C)C)cn1
5. COc1ccccc1-c1ccc2ncnc(NCc3cnc(C)cn3)c2c1

(A)
inactive
3.16 µM (active)
2.51 µM (active)
inactive
6.31 µM (active)

Each of the following entries comes with a recorded value; kindly state AC50 for each.
1. COc1ccc(S(=O)(=O)N(C)CC(=O)NCc2ccco2)cc1
2. CCC(=O)c1ccc2c(c1)N(CCCN(C)C)c1ccccc1S2
3. Cc1cnc(CNc2ncnc3ccc(-c4ccccc4C(F)(F)F)cc23)cn1
4. NC(=O)NCc1ccc(Cl)cc1
5. COc1ccc(CNc2ccnc(-c3cccnc3)n2)c(OC)c1
6. CCC#CCOCC(=O)Nc1ccccc1

(A)
1: inactive; 2: 0.631 µM (active); 3: 12.6 µM (active); 4: inactive; 5: 0.316 µM (active); 6: 25.1 µM (active)

Each of the following entries comes with a recorded value; kindly state AC50 for each.
1. Nc1nc(SCc2ccccc2[N+](=O)[O-])c2[nH]cnc2n1
2. O=C(Nn1cnc2ccccc2c1=O)c1ccc(F)cc1Cl
3. CCCn1c(C)nc2c(c1=O)c1nc3ccccc3nc1n2CCC1=CCCCC1
4. COCCNc1ccnc(-c2cccc(NS(C)(=O)=O)c2)n1
5. Cc1cnc(CNc2ncnc3ccc(-c4ccccc4CN(C)C)cc23)cn1
6. O=C(Nc1ccc(F)cc1Cl)c1ccc2c(=O)n3c(nc2c1)CCCCC3
7. COC(=O)c1ccccc1NC(=O)c1c(Br)cnn1C

(A)
1. 5.01 µM (active)
2. inactive
3. 25.1 µM (active)
4. 2 µM (active)
5. inactive
6. 5.01 µM (active)
7. 0.891 µM (active)

Each of the following entries comes with a recorded value; kindly state AC50 for each.
1. O=C(NCc1ccccc1)C(c1cccs1)N(Cc1cccs1)C(=O)c1cnccn1 (stereo unspecified)
2. COc1cccc(-c2nccc(NCc3ccc(OC)cc3OC)n2)c1
3. Nc1nc(SC/C=C\c2ccccc2)c2[nH]cnc2n1
4. FC(F)(F)c1ccccc1-c1ccc2ncnc(NC3CC3)c2c1
5. Cc1ccc(OCC(=O)NNC(=O)CCC(=O)NCc2ccccc2)cc1
6. CCCCOC(=O)Nc1ccccc1C(=O)OC
7. COC(=O)c1cc(NC(=O)N2c3ccccc3Sc3ccccc32)cc(C(=O)OC)c1

(A)
["inactive", "1 µM (active)", "5.01 µM (active)", "0.316 µM (active)", "inactive", "2 µM (active)", "3.16 µM (active)"]

Each of the following entries comes with a recorded value; kindly state AC50 for each.
1. CC(C)(C)c1ccc(C(=O)NCCC(=O)NCc2ccco2)cc1
2. COC(=O)c1ccccc1NC(=O)c1ccc(F)cc1
3. N[C@@H](C(=O)O)c1ccc(O)c(C(=O)O)c1

(A)
1. 1.58 µM (active)
2. 0.2 µM (active)
3. inactive
